Provide the recorded Dmax for the entries that follow.
biological target: EGFR L858R/T790M/C797S (Homo sapiens, UniProt P00533, C797S/L858R/T790M); construct: expressed in transfected cells; host or cells: BaF3-LTC; assay: EGFR degradation HTRF assay in BaF3-LTC cells; type: cell-based; conditions: BaF3-LTC (L858R/T790M/C797S), maximum percentage of inhibition (degradation); read-out: BaF3-LTC Dmax (%)
Sequence (P00533 25-1210 T790M/C797S/L858R): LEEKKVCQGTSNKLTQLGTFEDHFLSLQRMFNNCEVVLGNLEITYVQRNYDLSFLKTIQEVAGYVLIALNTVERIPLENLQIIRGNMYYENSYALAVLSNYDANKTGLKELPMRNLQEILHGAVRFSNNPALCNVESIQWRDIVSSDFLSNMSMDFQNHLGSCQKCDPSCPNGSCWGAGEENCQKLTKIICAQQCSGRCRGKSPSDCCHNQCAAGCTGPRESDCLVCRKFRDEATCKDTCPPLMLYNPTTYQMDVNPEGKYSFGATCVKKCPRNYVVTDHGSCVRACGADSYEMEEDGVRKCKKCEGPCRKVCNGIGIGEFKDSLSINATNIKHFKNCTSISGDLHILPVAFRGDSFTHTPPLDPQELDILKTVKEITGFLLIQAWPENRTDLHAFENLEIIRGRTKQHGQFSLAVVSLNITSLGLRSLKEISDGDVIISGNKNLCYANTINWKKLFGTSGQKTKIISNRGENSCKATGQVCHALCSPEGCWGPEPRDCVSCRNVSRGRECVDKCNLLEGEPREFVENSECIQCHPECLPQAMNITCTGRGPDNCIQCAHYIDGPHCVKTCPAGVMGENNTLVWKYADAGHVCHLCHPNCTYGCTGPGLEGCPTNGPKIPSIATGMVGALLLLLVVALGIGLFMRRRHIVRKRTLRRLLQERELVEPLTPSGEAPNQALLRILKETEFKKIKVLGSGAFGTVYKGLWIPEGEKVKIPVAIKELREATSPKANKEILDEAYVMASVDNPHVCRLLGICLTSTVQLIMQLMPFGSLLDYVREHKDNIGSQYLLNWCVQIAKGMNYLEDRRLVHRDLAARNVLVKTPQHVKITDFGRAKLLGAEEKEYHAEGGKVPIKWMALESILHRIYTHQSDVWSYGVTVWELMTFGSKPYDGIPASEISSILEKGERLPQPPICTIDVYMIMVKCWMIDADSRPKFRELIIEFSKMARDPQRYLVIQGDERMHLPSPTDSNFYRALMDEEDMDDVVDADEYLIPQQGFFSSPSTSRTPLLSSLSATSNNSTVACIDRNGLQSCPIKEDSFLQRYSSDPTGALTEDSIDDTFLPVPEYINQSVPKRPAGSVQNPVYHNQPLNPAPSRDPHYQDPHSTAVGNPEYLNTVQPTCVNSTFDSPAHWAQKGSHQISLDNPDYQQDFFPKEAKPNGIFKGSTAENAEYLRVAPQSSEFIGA

MOLECULE	VALUE REPORTED
CCOc1cc(N2CCC(N3CCN(CCc4cc(F)c([C@H]5CCC(=O)NC5=O)c(F)c4)CC3)CC2)c(CC)cc1Nc1nccc(Nc2ccc3nc(CC)ncc3c2P(C)(C)=O)n1 [Example 749]	35.9%
CCOc1cc(N2CCC(N3CCN(CCc4cc(F)c([C@H]5CCC(=O)NC5=O)c(F)c4)CC3)CC2)c(CC)cc1Nc1ncc(Br)c(Nc2ccc3nc(C)c(F)cc3c2P(C)(C)=O)n1 [Example 728]	95.3%
[2H]C1([2H])CC([2H])(c2c(F)cc(CCN3CCN(C4CCN(c5cc(OCC)c(Nc6ncc(Br)c(Nc7ccc8nc(C)ccc8c7P(C)(C)=O)n6)cc5CC)CC4)CC3)cc2F)C(=O)NC1=O (stereo not shown) [Example 570]	91.7%
CCc1ccc2c(P(C)(C)=O)c(Nc3nc(Nc4cc(CC)c(N5CCC(N6CCN(C(=O)[C@H]7CN(c8cc(F)c([C@H]9CCC(=O)NC9=O)c(F)c8)CC7(C)C)CC6)CC5)cc4OC)ncc3Br)ccc2n1 [Example 754]	96.3%
CCOc1cc(N2CCC(N3CCN(CCc4cc(F)cc5c4n(C)c(=O)n5C4CCC(=O)NC4=O)CC3)CC2)c(CC)cc1Nc1ncc(Br)c(Nc2ccc3nc(CC)ccc3c2P(C)(C)=O)n1 (stereo not shown) [Example 462]	84.5%

// input: 3 molecules below; output: Dmax for each
1. COc1cc(N2CCC3(CCN(CCCCCOc4cccc5c4CN(C4CCC(=O)NC4=O)C5=O)CC3)CC2)c(C)cc1Nc1ncc(Br)c(Nc2ccc3nccnc3c2P(C)(C)=O)n1 (stereo not shown) [Example 542]
2. CCOc1cc(N2CCC(N3CCN(CCc4cc(F)c([C@H]5CCC(=O)NC5=O)c(F)c4)CC3)CC2)c(CC)cc1Nc1ncc(Br)c(Nc2cc(F)c3nc(CC)ccc3c2P(C)(C)=O)n1 [Example 486]
3. CCOc1cc(N2CCC(N3CCN(CCc4c(F)ccc5c4n(CC)c(=O)n5C4CCC(=O)NC4=O)CC3)CC2)c(CC)cc1Nc1ncc(Br)c(Nc2ccc3c(=O)n(CC)ncc3c2P(C)(C)=O)n1 (stereo not shown) [Example 559]

Resp:
1. 95.6%
2. 87.8%
3. 92.4%

Please report Dmax for every entry that follows.
1. CCOc1cc(N2CCC(N3CCN(CCc4cccc5c4C4(CC4)C(=O)N5C4CCC(=O)NC4=O)CC3)CC2)c(CC)cc1Nc1ncc(Br)c(Nc2ccc3nc(CC)ccc3c2P(C)(C)=O)n1 (stereo not shown) [Example 571]
2. CCc1cc(Nc2ncc(Br)c(Nc3ccc4nc(C)ccc4c3P(C)(C)=O)n2)c(OC2CC2)cc1N1CCC(N2CCN(CCc3cc(F)c([C@H]4CCC(=O)NC4=O)c(F)c3)CC2)CC1 [Example 459]
3. CCOc1cc(N2CCC(N3CCN(C(=O)[C@@H]4CCN(c5cc(F)c([C@H]6CCC(=O)NC6=O)c(F)c5)C4)CC3)CC2)c(CC)cc1Nc1ncc(Br)c(Nc2ccc3nc(C)c(F)cc3c2P(C)(C)=O)n1 [Example 577]
4. CCOc1cc(N2CCC(N3CCN(CCc4cccc5c4C(C)(C)C(=O)N5C4CCC(=O)NC4=O)CC3)CC2)c(CC)cc1Nc1ncc(Br)c(Nc2ccc3nc(CC)ccc3c2P(C)(C)=O)n1 (stereo not shown) [Example 572]
5. COc1cc(N2CCC(N3CCN(C(=O)[C@@H]4CCN(c5cc(F)c([C@H]6CCC(=O)NC6=O)c(F)c5)C4)CC3)CC2)c(C)cc1Nc1ncc(Br)c(Nc2ccc3nc(C)c(F)cc3c2P(C)(C)=O)n1 [Example 732]

Resp:
1. 93.2%
2. 86.9%
3. 88.6%
4. 90.3%
5. 95.5%

Can you give me Dmax for all of these, one by one?
1. CCc1ccc2c(P(C)(C)=O)c(Nc3nc(Nc4cc(CC)c(N5CCC(N6CCN(CCc7cc(F)c(C8CCC(=O)NC8=O)c(F)c7)CC6)CC5)cc4OC)ncc3Br)ccc2n1 (stereo not shown) [Example 485]
2. CCOc1cc(N2CCC(N3CCN(CCc4cccc5c4C(C)(C)C(=O)N5C4CCC(=O)NC4=O)CC3)CC2)c(CC)cc1Nc1ncc(Br)c(Nc2ccc3c(=O)n(CC)ncc3c2P(C)(C)=O)n1 (stereo not shown) [Example 501]

Resp:
1: 88.5%; 2: 83.5%
